Listing: Kd of selected compounds
- Assay system: Osh3 (Aspergillus oryzae)
- Construct: gene AO090020000057
- Sequence (Q2U562 entry or part of it): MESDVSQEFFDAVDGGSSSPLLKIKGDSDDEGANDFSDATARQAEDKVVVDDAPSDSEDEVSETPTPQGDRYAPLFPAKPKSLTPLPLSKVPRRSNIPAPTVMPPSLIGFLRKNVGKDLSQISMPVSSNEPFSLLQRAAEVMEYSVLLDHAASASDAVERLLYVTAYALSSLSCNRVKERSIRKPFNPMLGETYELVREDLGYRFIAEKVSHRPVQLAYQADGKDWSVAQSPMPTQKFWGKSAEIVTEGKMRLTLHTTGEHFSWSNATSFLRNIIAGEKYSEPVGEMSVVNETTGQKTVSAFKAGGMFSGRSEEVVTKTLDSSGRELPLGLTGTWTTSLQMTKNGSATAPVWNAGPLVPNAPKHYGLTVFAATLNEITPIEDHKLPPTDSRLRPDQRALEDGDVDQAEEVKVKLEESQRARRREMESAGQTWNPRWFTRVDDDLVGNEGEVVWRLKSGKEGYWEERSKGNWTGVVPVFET
- Experiment notes: microscale thermophoresis (MST), purified fluorescently labelled Osh3
- Assay type: binding
- Measurement parameters: read-out: Kd

{"Compound": "CC(C)CCC[C@@H](C)[C@H]1CC[C@H]2[C@@H]3C(=O)C=C4C[C@@H](O)CC[C@]4(C)[C@H]3CC[C@]12C", "Assay system": "Osh3 (Aspergillus oryzae)", "Kd, nM": 1460}
{"Compound": "CC(C)[C@@H](C)/C=C/[C@@H](C)[C@H]1CC[C@H]2C3=CC=C4C[C@@H](O)CC[C@]4(C)[C@H]3CC[C@]12C", "Assay system": "Osh3 (Aspergillus oryzae)", "Kd, nM": 122}
{"Compound": "C[C@H](CCCC(C)(C)O)[C@H]1CC[C@H]2[C@@H]3CC=C4C[C@@H](O)CC[C@]4(C)[C@H]3CC[C@]12C [25-hydroxycholesterol]", "Assay system": "Osh3 (Aspergillus oryzae)", "Kd, nM": 9.1}

* * *

- Assay system: Osh3 (Aspergillus oryzae)
- Construct: gene AO090020000057
- Experiment notes: microscale thermophoresis (MST), purified fluorescently labelled Osh3
- Assay type: binding

{"Chemical smiles": "CC[C@H](/C=C/[C@@H](C)[C@H]1CC[C@H]2[C@@H]3CC=C4C[C@@H](O)CC[C@]4(C)[C@H]3CC[C@]12C)C(C)C", "Unit annotation": "nM", "Kd": 1}
{"Chemical smiles": "CC[C@H](CC[C@@H](C)[C@H]1CC[C@H]2[C@@H]3CC=C4C[C@@H](O)CC[C@]4(C)[C@H]3CC[C@]12C)C(C)C", "Unit annotation": "nM", "Kd": 65.8}
{"Chemical smiles": "CC(C)[C@H](C)CC[C@@H](C)[C@H]1CC[C@H]2[C@@H]3CC=C4C[C@@H](O)CC[C@]4(C)[C@H]3CC[C@]12C", "Unit annotation": "nM", "Kd": 339}

* * *

- Assay system: Osh3 (Aspergillus oryzae)
- Construct: gene AO090020000057
- Experiment notes: microscale thermophoresis (MST), purified fluorescently labelled Osh3
- Type: binding
- Measurement parameters: read-out: Kd

{"Compound": "CC(C)[C@@H](C)/C=C/[C@@H](C)[C@H]1CC[C@H]2C3=C[C@@H](O)[C@@]4(O)C[C@@H](O)CC[C@]4(C)[C@H]3CC[C@]12C [cerevisterol]", "Kd / nM": 3.4}
{"Compound": "CC(C)CCC[C@@H](C)[C@H]1CC[C@H]2[C@@H]3CC=C4C[C@@H](O)CC[C@]4(C)[C@H]3CC[C@]12C [cholesterol]", "Kd / nM": 333}
{"Compound": "CC(C)[C@@H](C)/C=C/[C@@H](C)[C@H]1CC[C@@H]2[C@]1(C)CC[C@H]1[C@]23C=C[C@]2(C[C@@H](O)CC[C@]12C)OO3 [ergosterol peroxide]", "Kd / nM": 8.1}
